pIC50 values by entry
biological target: full-length recombinant human NEK7 (Homo sapiens, UniProt Q8TDX7); construct: full-length recombinant human NEK7; GST (N); test: NEK7 Enzymatic Assay; conditions: casein substrate, [33P]-ATP, 2 hours at room temperature
Sequence (Q8TDX7 whole entry): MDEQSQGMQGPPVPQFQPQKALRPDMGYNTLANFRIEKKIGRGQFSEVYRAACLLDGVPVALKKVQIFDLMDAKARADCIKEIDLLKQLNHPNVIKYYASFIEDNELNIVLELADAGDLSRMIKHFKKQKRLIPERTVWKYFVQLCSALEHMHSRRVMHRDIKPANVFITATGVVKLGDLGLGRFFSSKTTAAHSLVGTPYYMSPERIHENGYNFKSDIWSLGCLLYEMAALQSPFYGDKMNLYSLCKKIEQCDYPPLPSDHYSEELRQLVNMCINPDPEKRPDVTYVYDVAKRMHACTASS
Excerpt: […]
pIC50: −log10 of the molar value.

compound	pIC50
CCC(CC)c1cc(NC(=O)Nc2ccc(-c3nn(C4CC4)c4ncnc(N)c34)cc2F)on1	6.30 to 6.52
CC(C)c1cc(NC(=O)Nc2ccc(-c3nn(C4CC4)c4ncnc(N)c34)cc2F)on1	> 6.82
COCCn1nc(-c2ccc(NC(=O)Nc3cc(C4(C(F)(F)F)CC4)no3)c(F)c2)c2c(N)ncnc21	6.52 to 6.82
CC(C)(O)Cn1nc(-c2ccc(NC(=O)Nc3cc(C4(C(F)(F)F)CC4)no3)c(F)c2)c2c(N)ncnc21	6.52 to 6.82
Nc1ncnc2c1c(-c1ccc(NC(=O)Nc3cc(CO)no3)c(F)c1)nn2C1CC1	< 6.30
Nc1ncnc2c1c(-c1ccc(NC(=O)Nc3cc(C4(C(F)(F)F)CC4)no3)c(F)c1)nn2C1CC(O)C1 (stereo not shown)	> 6.82
Cn1nc(-c2ccc(NC(=O)Nc3cc(C(C)(C)C)no3)c(Cl)c2)c2c(N)ncnc21	< 6.30
